# target.or.system: Progesterone receptor (Homo sapiens, UniProt P06401); also: assay procedure not described here
# Sequence (P06401 whole entry): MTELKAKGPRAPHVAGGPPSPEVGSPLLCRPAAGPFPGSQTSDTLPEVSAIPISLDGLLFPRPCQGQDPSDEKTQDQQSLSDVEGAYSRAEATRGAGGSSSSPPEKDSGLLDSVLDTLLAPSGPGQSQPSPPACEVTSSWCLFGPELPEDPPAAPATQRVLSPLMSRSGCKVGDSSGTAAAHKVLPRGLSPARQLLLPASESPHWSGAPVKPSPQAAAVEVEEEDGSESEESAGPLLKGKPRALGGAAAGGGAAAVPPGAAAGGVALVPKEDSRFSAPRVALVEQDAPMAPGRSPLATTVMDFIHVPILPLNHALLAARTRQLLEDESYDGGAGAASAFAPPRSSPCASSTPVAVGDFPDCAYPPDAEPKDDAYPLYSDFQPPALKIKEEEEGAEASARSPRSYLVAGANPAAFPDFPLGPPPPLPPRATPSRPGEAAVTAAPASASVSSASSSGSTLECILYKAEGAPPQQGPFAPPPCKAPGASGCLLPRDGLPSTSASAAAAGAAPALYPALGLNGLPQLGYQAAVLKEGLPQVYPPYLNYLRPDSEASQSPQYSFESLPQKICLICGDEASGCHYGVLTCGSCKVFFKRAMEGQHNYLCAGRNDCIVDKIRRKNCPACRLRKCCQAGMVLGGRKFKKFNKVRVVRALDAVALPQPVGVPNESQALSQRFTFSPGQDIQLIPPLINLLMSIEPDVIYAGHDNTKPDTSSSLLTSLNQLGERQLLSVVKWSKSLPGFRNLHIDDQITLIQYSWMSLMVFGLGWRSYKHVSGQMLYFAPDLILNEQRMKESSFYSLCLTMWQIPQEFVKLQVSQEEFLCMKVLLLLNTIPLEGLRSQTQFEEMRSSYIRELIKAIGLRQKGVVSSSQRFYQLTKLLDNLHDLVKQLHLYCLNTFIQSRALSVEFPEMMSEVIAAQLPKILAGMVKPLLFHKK
# Type: functional
value.type: AC50

Ask: Find the recorded AC50 belonging to Cc1cccc(Nc2ccncc2S(=O)(=O)NC(=O)NC(C)C)c1 [TORSEMIDE] and report it.
Result: > 10 µM

Ask: Find the recorded AC50 belonging to Cc1c(C)c2c(c(C)c1O)CCC(C)(COc1ccc(CC3SC(=O)NC3=O)cc1)O2 (stereo not drawn) and report it.
Result: > 30 µM

Ask: Find the recorded AC50 belonging to O=C(C[S+]([O-])Cc1ccco1)NC/C=C\COc1cc(CN2CCCCC2)ccn1 (stereo not drawn) and report it.
Result: > 10 µM

Ask: Find the recorded AC50 belonging to O=C(O)[C@H]1/C(=C/CO)O[C@@H]2CC(=O)N21 and report it.
Result: > 30 µM

Ask: Find the recorded AC50 belonging to COc1cc2c(cc1OC)C1CC(=O)C(CC(C)C)CN1CC2 (stereo not drawn) and report it.
Result: > 30 µM

Ask: Find the recorded AC50 belonging to CC(C)/N=c1\cc2n(-c3ccc(Cl)cc3)c3ccccc3nc-2cc1Nc1ccc(Cl)cc1 and report it.
Result: > 30 µM

Ask: Find the recorded AC50 belonging to C[C@]12C=CC(=O)C=C1C(Cl)=C[C@@H]1[C@@H]2[C@@H](O)C[C@@]2(C)[C@H]1CC[C@]2(O)C(=O)CO and report it.
Result: 2.1 µM

Ask: Find the recorded AC50 belonging to CN(C)CCOC(c1ccc(Cl)cc1)c1ccccn1 (stereo not drawn) and report it.
Result: > 30 µM

* * *

AC50 for assorted molecules
# target.or.system: Voltage-gated inwardly rectifying potassium channel KCNH2 (Homo sapiens, UniProt Q12809); also: assay procedure not described here
# Sequence (Q12809 whole entry): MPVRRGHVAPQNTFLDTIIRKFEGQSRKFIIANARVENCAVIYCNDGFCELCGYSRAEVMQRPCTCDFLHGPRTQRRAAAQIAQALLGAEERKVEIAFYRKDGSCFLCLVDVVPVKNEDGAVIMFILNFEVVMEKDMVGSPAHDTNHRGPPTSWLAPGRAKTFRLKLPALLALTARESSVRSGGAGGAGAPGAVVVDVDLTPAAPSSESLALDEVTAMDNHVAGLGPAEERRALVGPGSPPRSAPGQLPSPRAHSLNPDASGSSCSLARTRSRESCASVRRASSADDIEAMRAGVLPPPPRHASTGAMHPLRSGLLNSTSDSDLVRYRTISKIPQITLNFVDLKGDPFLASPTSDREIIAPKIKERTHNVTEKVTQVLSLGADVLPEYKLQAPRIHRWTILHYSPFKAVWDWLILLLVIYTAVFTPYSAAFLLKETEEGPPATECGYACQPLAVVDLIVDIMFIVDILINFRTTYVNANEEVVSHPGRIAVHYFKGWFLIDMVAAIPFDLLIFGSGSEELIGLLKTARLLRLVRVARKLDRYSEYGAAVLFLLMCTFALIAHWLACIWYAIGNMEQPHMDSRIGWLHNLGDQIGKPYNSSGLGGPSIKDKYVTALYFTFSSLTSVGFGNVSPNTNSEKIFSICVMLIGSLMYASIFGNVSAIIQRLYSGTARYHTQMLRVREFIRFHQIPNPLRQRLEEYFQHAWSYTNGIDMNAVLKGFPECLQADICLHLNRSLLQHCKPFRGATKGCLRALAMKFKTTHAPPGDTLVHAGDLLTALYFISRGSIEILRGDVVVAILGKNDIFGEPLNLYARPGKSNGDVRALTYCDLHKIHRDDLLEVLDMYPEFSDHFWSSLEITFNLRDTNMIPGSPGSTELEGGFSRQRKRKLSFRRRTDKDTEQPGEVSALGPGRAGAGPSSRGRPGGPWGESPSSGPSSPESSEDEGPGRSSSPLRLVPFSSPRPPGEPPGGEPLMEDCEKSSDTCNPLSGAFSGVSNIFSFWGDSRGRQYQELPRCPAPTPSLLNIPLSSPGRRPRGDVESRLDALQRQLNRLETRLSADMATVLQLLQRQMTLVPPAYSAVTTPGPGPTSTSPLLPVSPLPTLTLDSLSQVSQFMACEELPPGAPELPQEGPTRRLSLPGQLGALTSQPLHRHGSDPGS
# Type: functional
# condition: read-out: AC50; also: assay procedure not described here

> print(dat)
                                   molecule                          target.or.system  value.type  endpoint.value
1  CC(C)(C)NCC(O)COc1ccccc1C#N (stereo unspecified)  Voltage-gated inwardly rectifying potassium channel KCNH2 (Homo sapiens, UniProt Q12809)        AC50         > 30 µM
2  CCOC(=O)O[C@]1(C(=O)COC(=O)CC)CC[C@H]2[C@@H]3CCC4=CC(=O)C=C[C@]4(C)[C@H]3[C@@H](O)C[C@@]21C [PREDNICARBATE]  Voltage-gated inwardly rectifying potassium channel KCNH2 (Homo sapiens, UniProt Q12809)        AC50         > 30 µM
3  CC(=O)NC[C@H]1CN(c2ccc(N3CCOCC3)c(F)c2)C(=O)O1  Voltage-gated inwardly rectifying potassium channel KCNH2 (Homo sapiens, UniProt Q12809)        AC50         > 30 µM
4  CN1C(=O)CN=C(c2ccccc2F)c2cc([N+](=O)[O-])ccc21  Voltage-gated inwardly rectifying potassium channel KCNH2 (Homo sapiens, UniProt Q12809)        AC50         > 30 µM
5                CCCCCCCC/C=C\CCCCCCCC(=O)O  Voltage-gated inwardly rectifying potassium channel KCNH2 (Homo sapiens, UniProt Q12809)        AC50         > 30 µM

Ask: Find the recorded AC50 belonging to COc1ccc(-c2cc(=S)ss2)cc1 and report it.
Result: 23.3 µM

Ask: Find the recorded AC50 belonging to O=C(O)[C@H](O)[C@@H](O)[C@H](O)[C@H](O)CO and report it.
Result: > 30 µM

Ask: Find the recorded AC50 belonging to CCOc1ccccc1OCCN[C@H](C)Cc1ccc(OC)c(S(N)(=O)=O)c1 and report it.
Result: 6.95 µM

Ask: Find the recorded AC50 belonging to Nc1nc(Cl)nc2c1ncn2[C@@H]1O[C@H](CO)[C@@H](O)[C@@H]1F and report it.
Result: > 30 µM

Ask: Find the recorded AC50 belonging to C[C@]12C=CC(=O)C=C1C(Cl)=C[C@@H]1[C@@H]2[C@@H](O)C[C@@]2(C)[C@H]1CC[C@]2(O)C(=O)CO and report it.
Result: > 30 µM

Ask: Find the recorded AC50 belonging to COc1ncnc(NS(=O)(=O)c2ccc(N)cc2)c1OC and report it.
Result: > 30 µM

Ask: Find the recorded AC50 belonging to CC(C)(C)NCC(O)COc1cccc2c1CC(O)C(O)C2 (stereo unspecified) and report it.
Result: > 30 µM

Ask: Find the recorded AC50 belonging to COC(=O)[C@H]1[C@H]2C[C@@H]3c4[nH]c5ccccc5c4CCN3C[C@H]2C[C@@H](OC(=O)c2cc(OC)c(OC)c(OC)c2)[C@@H]1OC and report it.
Result: 2.45 µM

Ask: Find the recorded AC50 belonging to Cc1ccc2c([nH]c(=O)c3c(=O)cc(C(=O)OCCC(C)C)oc32)c1C and report it.
Result: 23 µM

Ask: Find the recorded AC50 belonging to C[N+]1(C)[C@@H]2CC[C@H]1C[C@@H](OC(=O)C(O)c1ccccc1)C2 (stereo partly specified) and report it.
Result: > 30 µM

Ask: Find the recorded AC50 belonging to Cc1cccc(C)c1NC(=O)c1cc(S(N)(=O)=O)c(Cl)cc1O [XIPAMIDE] and report it.
Result: > 30 µM

Ask: Find the recorded AC50 belonging to C[C@H](CCC(=O)O)[C@H]1CC[C@H]2[C@@H]3[C@H](O)C[C@@H]4C[C@H](O)CC[C@]4(C)[C@H]3CC[C@]12C and report it.
Result: > 30 µM

Ask: Find the recorded AC50 belonging to CC(NCCC(c1ccccc1)c1ccccc1)c1ccccc1 (stereo unspecified) and report it.
Result: 1.3 µM

* * *

AC50 for assorted compounds
# target.or.system: Neuropeptide Y receptor type 1 (Homo sapiens, UniProt P25929); also: assay procedure not described here
# Sequence (P25929 whole entry): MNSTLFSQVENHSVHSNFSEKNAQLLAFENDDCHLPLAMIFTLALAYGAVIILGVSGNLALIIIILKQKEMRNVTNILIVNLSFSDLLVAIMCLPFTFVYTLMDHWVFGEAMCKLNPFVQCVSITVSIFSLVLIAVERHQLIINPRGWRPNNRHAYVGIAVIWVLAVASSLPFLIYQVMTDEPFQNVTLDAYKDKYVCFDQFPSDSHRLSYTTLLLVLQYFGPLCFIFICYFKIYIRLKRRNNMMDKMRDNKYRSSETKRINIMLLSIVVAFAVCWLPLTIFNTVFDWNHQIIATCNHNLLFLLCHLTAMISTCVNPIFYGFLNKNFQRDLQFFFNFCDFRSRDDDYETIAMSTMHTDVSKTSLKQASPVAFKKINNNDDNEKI

Ask: Form field: AC50 recorded for CC(C)/N=c1\cc2n(-c3ccc(Cl)cc3)c3ccccc3nc-2cc1Nc1ccc(Cl)cc1 with Neuropeptide Y receptor type 1 (Homo sapiens, UniProt P25929) (enter value)
Result: > 30 µM

Ask: Form field: AC50 recorded for CS(=O)(=O)NC(=O)CCC/C=C\C[C@H]1C(=O)C[C@@H](O)[C@@H]1/C=C/[C@@H](O)COc1ccccc1 with Neuropeptide Y receptor type 1 (Homo sapiens, UniProt P25929) (enter value)
Result: > 30 µM

Ask: Form field: AC50 recorded for OCCN(CCO)c1nc(N2CCCCC2)c2nc(N(CCO)CCO)nc(N3CCCCC3)c2n1 with Neuropeptide Y receptor type 1 (Homo sapiens, UniProt P25929) (enter value)
Result: > 30 µM

Ask: Form field: AC50 recorded for CC(C)(C)NCC(O)COc1cccc2c1CC(O)C(O)C2 (stereo not drawn) with Neuropeptide Y receptor type 1 (Homo sapiens, UniProt P25929) (enter value)
Result: > 10 µM

Ask: Form field: AC50 recorded for CCCO[C@H]1[C@@H]([C@@H](COCc2ccc(Cl)cc2)OCc2ccc(Cl)cc2)OC(OCC)[C@@H]1O (stereo partly drawn) [CLOBENOSIDE] with Neuropeptide Y receptor type 1 (Homo sapiens, UniProt P25929) (enter value)
Result: > 30 µM

Ask: Form field: AC50 recorded for Cc1ccc(-c2ncc(Cl)cc2-c2ccc(S(C)(=O)=O)cc2)cn1 with Neuropeptide Y receptor type 1 (Homo sapiens, UniProt P25929) (enter value)
Result: > 10 µM

Ask: Form field: AC50 recorded for NCCCNCCSP(=O)(O)O with Neuropeptide Y receptor type 1 (Homo sapiens, UniProt P25929) (enter value)
Result: > 30 µM

Ask: Form field: AC50 recorded for CCOC(=O)[C@H](CCc1ccccc1)N[C@@H](C)C(=O)N1Cc2ccccc2C[C@H]1C(=O)O with Neuropeptide Y receptor type 1 (Homo sapiens, UniProt P25929) (enter value)
Result: > 30 µM

* * *

Protein target, amino acids: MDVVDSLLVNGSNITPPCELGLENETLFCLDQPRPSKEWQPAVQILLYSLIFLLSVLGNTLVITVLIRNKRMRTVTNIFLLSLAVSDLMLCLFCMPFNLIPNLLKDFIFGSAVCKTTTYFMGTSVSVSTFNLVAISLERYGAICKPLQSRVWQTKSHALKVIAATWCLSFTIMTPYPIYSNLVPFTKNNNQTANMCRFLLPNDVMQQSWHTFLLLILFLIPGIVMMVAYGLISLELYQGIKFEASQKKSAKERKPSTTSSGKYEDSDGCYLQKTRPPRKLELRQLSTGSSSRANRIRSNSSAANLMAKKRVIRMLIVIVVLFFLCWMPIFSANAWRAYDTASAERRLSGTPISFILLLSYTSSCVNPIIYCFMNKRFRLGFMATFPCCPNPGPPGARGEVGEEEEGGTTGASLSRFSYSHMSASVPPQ
value.type: AC50

> print(dat)
                              compound  endpoint.value
1  c1cnc2cc3c(cc2n1)[C@@H]1CNC[C@H]3C1         > 30 µM

Ask: Find the recorded AC50 belonging to C[C@]12C=CC(=O)C=C1CC[C@@H]1[C@@H]2[C@@H](O)C[C@@]2(C)[C@H]1CC[C@]2(O)C(=O)CO and report it.
Result: > 30 µM

Ask: Find the recorded AC50 belonging to CC1=C(CC(=O)O)c2cc(F)ccc2/C1=C\c1ccc([S+](C)[O-])cc1 (centres undefined) and report it.
Result: > 30 µM

Ask: Find the recorded AC50 belonging to CCOC(=O)C1=C(C)NC(C)=C(C(=O)OC)C1c1cccc(Cl)c1Cl (centres undefined) and report it.
Result: > 30 µM

Ask: Find the recorded AC50 belonging to Nc1ccc(S(=O)(=O)Nc2ncccn2)cc1 and report it.
Result: > 10 µM
